This section presents binders with their documented koff values.
Biological target: T1, recombinant mouse TfR-1, His-tagged (Sino Biological 50741-M07H) (mouse, UniProt Q62351 89-763)
T1 construct: bought; His-tagged; also called mTfR1; mTfR-1
T1 sequence (Q62351 89-763 limits assumed, stated change not applied): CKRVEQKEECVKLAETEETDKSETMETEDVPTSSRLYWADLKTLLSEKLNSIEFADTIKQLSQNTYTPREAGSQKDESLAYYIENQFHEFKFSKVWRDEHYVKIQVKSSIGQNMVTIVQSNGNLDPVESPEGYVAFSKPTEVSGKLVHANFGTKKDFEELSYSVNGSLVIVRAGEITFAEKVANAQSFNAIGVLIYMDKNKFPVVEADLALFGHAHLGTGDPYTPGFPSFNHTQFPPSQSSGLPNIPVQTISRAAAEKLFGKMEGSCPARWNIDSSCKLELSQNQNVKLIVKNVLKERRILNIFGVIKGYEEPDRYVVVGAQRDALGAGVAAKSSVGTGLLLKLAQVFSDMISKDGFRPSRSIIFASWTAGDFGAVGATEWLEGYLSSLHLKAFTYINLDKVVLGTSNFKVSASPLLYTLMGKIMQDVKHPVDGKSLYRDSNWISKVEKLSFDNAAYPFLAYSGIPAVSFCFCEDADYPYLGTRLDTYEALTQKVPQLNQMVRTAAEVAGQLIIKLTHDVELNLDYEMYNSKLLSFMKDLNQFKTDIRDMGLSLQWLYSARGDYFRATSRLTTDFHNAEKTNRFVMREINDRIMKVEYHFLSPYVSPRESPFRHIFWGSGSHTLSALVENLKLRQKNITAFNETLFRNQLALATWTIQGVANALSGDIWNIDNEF
Assay: SPR, His-captured TfR1
TEST_READOUT: koff (s⁻¹)

1) Clone C variant 3 VNAR-hFc (Fc fusion, not shown: a dimerising Fc or GST) ARVDQTPQTITKETGESLTINCVLRDSNCALSSTYWYRKKSGSTNEENISKGGRYVETVNSGSKSFSLRINDLTVEDSGTYRCNVVQHPSYNNYFWCDVYGDGTAVTVN	0.000256
2) Clone C variant 7 VNAR-hFc (Fc fusion, not shown: a dimerising Fc or GST) ARVDQTPQTITKETGESLTINCVLRDSNCALSSTYWYRKKSGSTNEENISKGGRYVETVNSGSKSFSLRINDLTVEDSGTYRCNVVQWPSLSSPFWCDVYGDGTAVTVN	3.39e-05
3) Clone C variant 12 VNAR-hFc (Fc fusion, not shown: a dimerising Fc or GST) ARVDQTPQTITKETGESLTINCVLRDSNCALSSTYWYRKKSGSTNEENISKGGRYVETVNSGSKSFSLRINDLTVEDSGTYRCNVVQYPQQDNPFWCDVYGDGTAVTVN	0.000128
4) Clone C variant 17 VNAR-hFc (Fc fusion, not shown: a dimerising Fc or GST) ARVDQTPQTITKETGESLTINCVLRDSNCALSSTYWYRKKSGSTNEENISKGGRYVETVNSGSKSFSLRINDLTVEDSGTYRCNVVQYPQYDNYFWCDVYGDGTAVTVN	3.72e-05
5) Clone C variant 5 VNAR-hFc (Fc fusion, not shown: a dimerising Fc or GST) ARVDQTPQTITKETGESLTINCVLRDSNCALSSTYWYRKKSGSTNEENISKGGRYVETVNSGSKSFSLRINDLTVEDSGTYRCNVVQSPSYNNYFWCDVYGDGTAVTVN	0.000135
6) Clone C variant 4 VNAR-hFc (Fc fusion, not shown: a dimerising Fc or GST) ARVDQTPQTITKETGESLTINCVLRDSNCALSSTYWYRKKSGSTNEENISKGGRYVETVNSGSKSFSLRINDLTVEDSGTYRCNVVQRPSYNNYFWCDVYGDGTAVTVN	8.76e-05

Ref: patent US20210403591A1
